tgt: Recombinant human CYP51A1 (lanosterol-14a-demethylase) (Homo sapiens (Human))
Sequence (Q16850 whole entry): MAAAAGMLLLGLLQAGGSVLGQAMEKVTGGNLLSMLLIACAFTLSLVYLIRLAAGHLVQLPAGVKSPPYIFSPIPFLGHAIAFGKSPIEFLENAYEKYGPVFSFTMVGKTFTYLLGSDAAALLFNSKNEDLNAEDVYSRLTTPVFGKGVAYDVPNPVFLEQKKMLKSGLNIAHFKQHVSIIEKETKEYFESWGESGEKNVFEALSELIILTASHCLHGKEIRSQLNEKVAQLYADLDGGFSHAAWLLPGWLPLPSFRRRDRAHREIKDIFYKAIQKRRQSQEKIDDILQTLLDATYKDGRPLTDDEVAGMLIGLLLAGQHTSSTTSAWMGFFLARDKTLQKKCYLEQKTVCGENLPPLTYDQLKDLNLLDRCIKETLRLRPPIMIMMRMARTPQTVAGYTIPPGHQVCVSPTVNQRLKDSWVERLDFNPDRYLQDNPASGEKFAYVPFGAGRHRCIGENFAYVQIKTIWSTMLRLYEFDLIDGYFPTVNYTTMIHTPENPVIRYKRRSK
method.notes: Inhibition of CYP51A1, fluorescent substrate BOMCC
condition.label: recombinant human CYP51A1 coexpressed with CYP reductase in bacterial membranes, 8-point concentration-response, read-out: CYP51 IC50
Description: Method: Recombinant human CYP51A1 (lanosterol-14a-demethylase) enzyme was coexpressed with CYP reductase in bacterial membranes and the fluorescent substrate BOMCC (a nonnatural substrate that causes increases in fluorescence upon CYP51A1-dependent demethylation) was used to obtain 8-point dose concentration-response curves for each compound.
pIC50: −log10 of the molar value.
Overview of recorded pIC50 for various compounds

Below, each entry is followed by its recorded pIC50 result.
• CCCN(C[C@@H](O)c1cccnc1)C(=O)C1Cc2cnc(C(F)(F)F)cc2C1 (some centres unmarked) = ≥ 7.00
• CC(C)c1ccncc1C(O)CN(CC1COC1)C(=O)Cc1ccc(C(F)(F)F)nc1 (centres unmarked) = ≥ 7.00
• CCCN(CC(O)c1cnccn1)C(=O)C1Cc2cc(Cl)c(Cl)cc2C1 (single isomer, unassigned) [compound 42] = ≥ 7.00
• CCCN(CC(O)c1cnccn1)C(=O)Cc1ccc(C(F)(F)F)nc1 (centres unmarked) = < 6.00
• CCCN(C[C@@H](O)c1cccnc1)C(=O)Cc1ccc(F)cn1 = < 6.00
• CC(C)(C)OC(=O)N(CCc1ccc(Cl)c(Cl)c1)CC(O)c1cccnc1 (centres unmarked) = 6.00 to 7.00
• COC(=O)N(CCc1ccc(Cl)c(Cl)c1)CC(O)c1cccnc1 (centres unmarked) = 6.00 to 7.00

// switching to the query compound
Given the entry CCCN(CC(O)c1cncc(C#N)c1)C(=O)Cc1ccc(Cl)c(Cl)c1 (centres unmarked) , report its measured pIC50. < 6.00

* * *

tgt: Recombinant human CYP51A1 (lanosterol-14a-demethylase) (Homo sapiens (Human))
method.notes: Inhibition of CYP51A1, fluorescent substrate BOMCC
condition.label: recombinant human CYP51A1 coexpressed with CYP reductase in bacterial membranes, 8-point concentration-response, read-out: CYP51 IC50
Description: Method: Recombinant human CYP51A1 (lanosterol-14a-demethylase) enzyme was coexpressed with CYP reductase in bacterial membranes and the fluorescent substrate BOMCC (a nonnatural substrate that causes increases in fluorescence upon CYP51A1-dependent demethylation) was used to obtain 8-point dose concentration-response curves for each compound.
pIC50: −log10 of the molar value.
endpoint.label: pIC50

Some solved entries appear below for comparison.
- CCCN(C[C@@H](O)c1cccnc1)C(=O)Cc1ccc2scnc2c1: 6.00 to 7.00
- CCCN(CC(O)c1cccnn1)C(=O)Cc1ccc(C#N)c(Cl)c1 (single isomer, unassigned) [compound 54]: < 6.00
- O=C(Cc1ccc(C(F)(F)F)nc1)N(CC1CCNCC1)C[C@@H](O)c1cccnc1: < 6.00
- CCCN(CC(O)c1cccnc1)C(=O)Cc1cccnc1 (stereo not drawn): < 6.00
- O=C(Cc1ccc(C(F)(F)F)nc1)N(CC(O)c1cccnn1)C1CCC1 (stereo not drawn) [compound 60]: 6.00 to 7.00

Data request, read-out pIC50, for O=C(Cc1ccc(C(F)(F)F)nc1)N(CC1CCOCC1)C[C@@H](O)c1cccnc1 < 6.00

Quick one: pIC50 of CCCN(CC(O)c1cccnn1)C(=O)Cc1ccc(C#N)c(Cl)c1 (stereo not drawn) [compound 52] ? 6.00 to 7.00

Reported pIC50 for CCCN(CC(O)c1ccnnc1)C(=O)Cc1ccc(Cl)c(Cl)c1 (stereo not drawn) : what is it? < 6.00

Entry N#Cc1ccc(CC(=O)N(C[C@@H](O)c2cccnc2)C2CCC2)cc1Cl has what pIC50? ≥ 7.00

Need pIC50 of N#Cc1ccc(CC(=O)N(CC2COC2)C[C@@H](O)c2cccnc2)cc1Cl , thanks. 6.00 to 7.00

Fill in: pIC50 of COC(=O)N(CCc1ccc(C(F)(F)F)nc1)C[C@@H](O)c1cccnc1 is ___ < 6.00

State the recorded pIC50 for this entry: CCCN(C[C@@H](O)c1cccnc1)C(=O)C1Cc2cc(C#N)c(C#N)cc2C1 6.00 to 7.00

Field request: pIC50 | item: O=C(Cc1ccc(Cl)c(Cl)c1)N(CC1COC1)C[C@@H](O)c1cccnc1 6.00 to 7.00

What value of pIC50 has been recorded for this entry: CCCN(C[C@@H](O)c1cccnc1)C(=O)Cc1ccc2ncsc2c1 6.00 to 7.00

pIC50 lookup needed for CCCN(C[C@H](O)c1cccnc1)C(=O)Cc1ccc(Cl)c(Cl)c1 , thanks. ≥ 7.00

For the molecule shown here, CCC(=O)N(C[C@@H](O)c1cccnc1)C1Cc2cc(Cl)c(Cl)cc2C1 , give the reported pIC50. 6.00 to 7.00

Which value of pIC50 has been reported for CCCN(C[C@@H](O)c1cccnc1)C(=O)Cc1ccc(C)nc1 in the records? < 6.00

Param item = CCCN(CC(O)c1cnccn1)C(=O)C1Cc2cc(Cl)c(Cl)cc2C1 (stereo not drawn) [compound 129] ; retrieve measured pIC50. 6.00 to 7.00
